Tested on: Ba/F3-CDM cells (Ba/F3 transfected with CD8-MerTK)
assay_overview: In cell MER kinase assay, Ba/F3-CDM cell proliferation without IL-3 (Celltiter-Glo, GI50)
Type: cell-based, murine
study_conditions: 48 hours, read-out: Cell growth inhibition (GI50)
property_label: GI50

What value of GI50 has been reported for the following compound? CC(c1ccc(-c2ccc(CO[C@H]3CNC[C@@H]3NC(=O)c3cc(-c4cnn(C)c4)cnc3N)cc2)cc1)N1CCN(CCO)CC1 (stereo partly shown)
> 1 µM

What value of GI50 has been reported for the following compound? CN1C[C@H](NC(=O)c2cc(-c3cnn(C)c3)cnc2N)[C@@H](OCc2ccc(-c3ccc(CN4CCN(CCO)CC4)c(C(F)(F)F)c3)cc2)C1
< 0.1 µM

What value of GI50 has been reported for the following compound? CCc1cc(CO[C@H]2CNC[C@@H]2NC(=O)c2cc(-c3ccc(C(=O)NC4CCN(C)CC4)cc3)cnc2N)ccc1C
> 1 µM

What value of GI50 has been reported for the following compound? CN1CCN(c2ccc(-c3ccc(CO[C@H]4CCC[C@@H]4NC(=O)c4cc(-c5cnn(C)c5)cnc4N)cc3)cn2)CC1
> 1 µM

What value of GI50 has been reported for the following compound? CN1CCN(Cc2ccc(-c3ccc(CO[C@H]4CCC[C@@H]4NC(=O)c4cc(-c5ccc(F)nc5)cnc4N)cc3)cc2)CC1
< 0.1 µM

What value of GI50 has been reported for the following compound? Cn1cc(-c2cnc(N)c(C(=O)N[C@H]3CCC[C@@H]3OCc3ccc(-c4ccc(CN5CCN(CCO)CC5)cc4)cc3)c2)cn1
< 0.1 µM

What value of GI50 has been reported for the following compound? CC(c1ccc(-c2ccc(CO[C@H]3CCC[C@@H]3NC(=O)c3cc(-c4cccnc4F)cnc3N)cc2)cc1)N1CCN(CCO)CC1 (stereo partly shown)
< 0.1 µM

What value of GI50 has been reported for the following compound? Cn1cc(-c2cnc(N)c(C(=O)N[C@H]3CNC[C@@H]3OCc3ccc(-c4ccc(CN5CCN(CCO)CC5)c(C(F)(F)F)c4)cc3)c2)cn1
> 1 µM

What value of GI50 has been reported for the following compound? CN1CCN(Cc2ccc(-c3ccc(CO[C@H]4CCC[C@@H]4NC(=O)c4cc(-c5cc(F)nc(F)c5)cnc4N)cc3)cc2)CC1
< 0.1 µM

What value of GI50 has been reported for the following compound? CN1CCN(Cc2ccc(-c3ccc(CO[C@H]4CCC[C@@H]4NC(=O)c4cc(-c5ccc(CN6CCN(C)CC6)cc5)cnc4N)cc3)cc2)CC1
< 0.1 µM

What value of GI50 has been reported for the following compound? CN1CCN(Cc2ccc(-c3ccc(CO[C@H]4CCC[C@@H]4NC(=O)c4cc(-c5ccc(F)c(F)c5)cnc4N)cc3)cc2)CC1
< 0.1 µM

What value of GI50 has been reported for the following compound? CN1CCN(Cc2ccc(-c3ccc(CO[C@H]4CCC[C@@H]4NC(=O)c4cc(-c5cnn(C)c5)cnc4N)cc3)cc2F)CC1
< 0.1 µM

What value of GI50 has been reported for the following compound? Cn1cc(-c2cnc(N)c(C(=O)N[C@H]3CCC[C@@H]3OCc3ccc(-c4ccc(CCN)cc4)cc3)c2)cn1
> 1 µM

What value of GI50 has been reported for the following compound? Cn1cc(-c2cnc(N)c(C(=O)N[C@H]3CCC[C@@H]3OCc3ccc(-c4ccc(CC5CCN(CC(N)=O)CC5)cc4)cc3)c2)cn1
< 0.1 µM

What value of GI50 has been reported for the following compound? CN1CCN(Cc2ccc(-c3ccc(CO[C@H]4CCC[C@@H]4NC(=O)c4cc(-c5cnn(C6CCOCC6)c5)cnc4N)cc3)cc2)CC1
< 0.1 µM

What value of GI50 has been reported for the following compound? CCc1cc(CO[C@H]2CCC[C@@H]2NC(=O)c2cc(-c3cnn(C)c3)cnc2N)ccc1C
> 1 µM

What value of GI50 has been reported for the following compound? CN1CCN(c2ccc(-c3ccc(CO[C@H]4CCC[C@@H]4NC(=O)c4cc(-c5cnn(C)c5)cnc4N)cc3)cc2)CC1
< 0.1 µM

What value of GI50 has been reported for the following compound? CN1CCN(Cc2ccc(-c3ccc(CO[C@H]4CCC[C@@H]4NC(=O)c4cc(-c5ccncc5)cnc4N)cc3)cc2)CC1
< 0.1 µM

What value of GI50 has been reported for the following compound? Cn1cc(-c2cnc(N)c(C(=O)N[C@H]3CNC[C@@H]3OCc3ccc(-c4ccc(CN5CCN(CCO)CC5)cc4)cc3)c2)cn1
> 1 µM

What value of GI50 has been reported for the following compound? CC1CCN(Cc2ccc(-c3cnc(N)c(C(=O)N[C@H]4CCC[C@@H]4OCc4ccc(-c5ccc(CN6CCN(C)CC6)cc5)cc4)c3)cc2)CC1
< 0.1 µM

What value of GI50 has been reported for the following compound? Cn1cc(-c2cnc(N)c(C(=O)N[C@H]3CCC[C@@H]3OCc3ccc(-c4ccc(C5(N6CCN(CCO)CC6)CC5)cc4)cc3)c2)cn1
< 0.1 µM

What value of GI50 has been reported for the following compound? CN1CCN(Cc2ccc(-c3ccc(CO[C@H]4CCC[C@@H]4NC(=O)c4cc(-c5ccc(O)cc5)cnc4N)cc3)cc2)CC1
< 0.1 µM

What value of GI50 has been reported for the following compound? CN1CCC(Cc2ccc(-c3ccc(CO[C@H]4CCC[C@@H]4NC(=O)c4cc(-c5cnn(C)c5)cnc4N)cc3)cc2)CC1
< 0.1 µM

What value of GI50 has been reported for the following compound? Cn1cc(-c2cnc(N)c(C(=O)N[C@H]3CCC[C@@H]3OCc3ccc(C#CCCCCO)cc3)c2)cn1
> 1 µM

What value of GI50 has been reported for the following compound? CN1CCN(Cc2ccc(-c3ccc(CO[C@H]4CCC[C@@H]4NC(=O)c4cc(-c5cccnc5)cnc4N)cc3)cc2)CC1
< 0.1 µM

###

Exercise: for every item that follows, state its recorded GI50.
System: Ba/F3-CDM cells (Ba/F3 transfected with CD8-MerTK)
assay_overview: In cell MER kinase assay, Ba/F3-CDM cell proliferation without IL-3 (Celltiter-Glo, GI50)
Assay type: cell-based, murine
study_conditions: 48 hours, read-out: Cell growth inhibition (GI50)

What value of GI50 has been reported for the following molecule? CN1CCN(Cc2ccc(-c3ccc(CO[C@H]4CCC[C@@H]4NC(=O)c4cc(-c5ccc(CO)cc5)cnc4N)cc3)cc2)CC1
< 100 nM

What value of GI50 has been reported for the following molecule? CCc1cc(CO[C@H]2CNC[C@@H]2NC(=O)c2cc(-c3ccc(C(N)=O)cc3)cnc2N)ccc1C
> 1000 nM

What value of GI50 has been reported for the following molecule? Cc1ccc(CO[C@H]2CNC[C@@H]2NC(=O)c2cc(-c3cnn(C)c3)cnc2N)cc1
> 1000 nM

What value of GI50 has been reported for the following molecule? CN1CCN(Cc2ccc(-c3ccc(CO[C@H]4COC[C@@H]4NC(=O)c4cc(-c5cnn(C)c5)cnc4N)cc3)cc2C(F)(F)F)CC1
< 100 nM

What value of GI50 has been reported for the following molecule? CN1CCN(Cc2ccc(-c3ccc(CO[C@H]4CCC[C@@H]4NC(=O)c4cc(-c5cnn(C)c5)cnc4N)cc3)cc2O)CC1
< 100 nM

What value of GI50 has been reported for the following molecule? C[C@@H]1CN(Cc2ccc(-c3ccc(CO[C@H]4CCC[C@@H]4NC(=O)c4cc(-c5cnn(C)c5)cnc4N)cc3)cc2)CCN1C
< 100 nM

What value of GI50 has been reported for the following molecule? CC(c1ccc(-c2ccc(CO[C@H]3CCC[C@@H]3NC(=O)c3cc(-c4cnn(C)c4)cnc3N)cc2)cc1)N1CCN(C)CC1 (some centres unmarked)
< 100 nM

What value of GI50 has been reported for the following molecule? Cn1cc(-c2cnc(N)c(C(=O)N[C@H]3CCC[C@@H]3OCc3ccc(-c4ccc(CN5CCN(CCO)CC5)c(C(F)(F)F)c4)cc3)c2)cn1
< 100 nM

What value of GI50 has been reported for the following molecule? Cn1cc(-c2cnc(N)c(C(=O)N[C@H]3COC[C@@H]3OCc3ccc(-c4ccc(CN5CCN(CCO)CC5)cc4)cc3)c2)cn1
< 100 nM

What value of GI50 has been reported for the following molecule? CN1CCN(Cc2ccc(-c3ccc(CO[C@H]4CCC[C@@H]4NC(=O)c4cc(-c5ccccc5)cnc4N)cc3)cc2)CC1
< 100 nM

What value of GI50 has been reported for the following molecule? CC(c1ccc(-c2ccc(CO[C@H]3CCC[C@@H]3NC(=O)c3cc(-c4cncc(F)c4)cnc3N)cc2)cc1)N1CCN(CCO)CC1 (some centres unmarked)
< 100 nM

What value of GI50 has been reported for the following molecule? CN(C)CCOc1ccc(-c2ccc(CO[C@H]3CCC[C@@H]3NC(=O)c3cc(-c4cnn(C)c4)cnc3N)cc2)cc1
500 to 1000 nM

What value of GI50 has been reported for the following molecule? Cn1cc(-c2cnc(N)c(C(=O)N[C@H]3CCC[C@@H]3OCc3ccc(-c4ccc(CN5CCN(CC(C)(C)O)CC5)cc4)cc3)c2)cn1
< 100 nM

What value of GI50 has been reported for the following molecule? CCc1cc(CO[C@H]2CCC[C@@H]2NC(=O)c2cc(-c3ccc(C(C)(C)N4CCN(CCO)CC4)cc3)cnc2N)ccc1C
> 1000 nM

What value of GI50 has been reported for the following molecule? CCc1cc(CO[C@H]2CNC[C@@H]2NC(=O)c2cc(-c3ccc(CO)cc3)cnc2N)ccc1C
100 to 500 nM

What value of GI50 has been reported for the following molecule? Cn1cc(-c2cnc(N)c(C(=O)N[C@H]3CNC[C@@H]3OCc3ccc(-c4ccc(C(C)(C)N5CCN(CCO)CC5)cc4)cc3)c2)cn1
> 1000 nM

What value of GI50 has been reported for the following molecule? CC(c1ccc(-c2ccc(CO[C@H]3CCC[C@@H]3NC(=O)c3cc(-c4cncc(F)c4)cnc3N)cc2)cc1)N1CCN(C)CC1 (some centres unmarked)
< 100 nM

What value of GI50 has been reported for the following molecule? C[C@@H](c1ccc(-c2ccc(CO[C@H]3CCC[C@@H]3NC(=O)c3cc(-c4cnn(C)c4)cnc3N)cc2)cc1)N1CCN(C)CC1
< 100 nM

What value of GI50 has been reported for the following molecule? CN1CCN(Cc2ccc(-c3ccc(CO[C@H]4CCC[C@@H]4NC(=O)c4cc(-c5ccc(N6CCN(C)CC6)cc5)cnc4N)cc3)cc2)CC1
< 100 nM

What value of GI50 has been reported for the following molecule? CC(c1c(F)cc(-c2ccc(CO[C@H]3CCC[C@@H]3NC(=O)c3cc(-c4cnn(C)c4)cnc3N)cc2)cc1F)N1CCN(CCO)CC1 (some centres unmarked)
> 1000 nM

What value of GI50 has been reported for the following molecule? CN1CCN(Cc2ccc(-c3ccc(CO[C@H]4CCC[C@@H]4NC(=O)c4cc(-c5cnn(C(F)(F)C(F)F)c5)cnc4N)cc3)cc2)CC1
< 100 nM

What value of GI50 has been reported for the following molecule? C[C@H](c1ccc(-c2ccc(CO[C@H]3CCC[C@@H]3NC(=O)c3cc(-c4ccc(F)nc4)cnc3N)cc2)cc1)N1CCN(CCO)CC1
< 100 nM

What value of GI50 has been reported for the following molecule? Cc1cccc(C)c1CO[C@H]1CCC[C@@H]1NC(=O)c1cc(-c2cnn(C)c2)cnc1N
> 1000 nM

What value of GI50 has been reported for the following molecule? CN1CCN(Cc2ccc(-c3ccc(CO[C@H]4CCC[C@@H]4NC(=O)c4cc(-c5cnn(C)c5)cnc4N)c(F)c3)cc2)CC1
< 100 nM

What value of GI50 has been reported for the following molecule? CN1CCC(n2cc(-c3cnc(N)c(C(=O)N[C@H]4CCC[C@@H]4OCc4ccc(-c5ccc(CN6CCN(C)CC6)cc5)cc4)c3)cn2)CC1
< 100 nM

What value of GI50 has been reported for the following molecule? CN1CCN(Cc2ccc(-c3ccc(CO[C@H]4CCC[C@@H]4NC(=O)c4cc(-c5cnn(C)c5)cnc4N)cc3)cc2C(F)(F)F)CC1
< 100 nM
